tested on: UO-31 renal; assay: NCI-60 one-dose screen, 48 h (100 = growth as untreated, 0 = no growth, -100 = all killed); details: 10 µM unless noted
Compounds without any hit were thinned out: in the full panel of roughly 83,000, 20% have a hit.
Listing of recorded growth by entry.
Respond numerically; units are % and should not be typed.

1. COc1ccc(-c2cc(C(=O)N3N=C(c4ccc(N)cc4)CC3c3ccc(OC)cc3)c3cc(OC)ccc3n2)cc1 (centres undefined): 56.6
2. CC(C)(C)c1ccc(O)c(Cc2cc(C(C)(C)C)ccc2O)c1: 85.7
3. CSc1nc(-c2ccc(F)cc2)c(C#N)c(N2CCOCC2)n1: 80.3

Now examine the next entry.
Task: Observed growth on UO-31 renal for C=C1C(=O)O[C@H]2[C@H]1CC/C(COC(=O)CCCCCCCCC(=O)OC/C1=C/CC[C@@]3(C)O[C@H]3[C@H]3OC(=O)C(=C)[C@@H]3CC1)=C\CC[C@@]1(C)O[C@@H]21 , please.
Result: -75.2

---

Tested on: M14 melanoma
Test: NCI-60 one-dose screen, 48 h
Conditions: 10 µM unless noted
Procedure: Growth inhibition of the M14 human tumor cell line is measured as a screen for anti-cancer activity. Cells are grown in 96 well plates and exposed to the test compound for 48 hours. Compounds are tested at a single concentration, which is 10^-5 M for most compounds. The reported endpoint is percent growth (GI% or GIPRCNT), where numbers from 0 - 100% represent growth inhibition, and numbers from -100% - 0 represent cell death. For example, a value of 40 represents 60% growth inhibition. […]
About 83,000 compounds went through this panel and 20% of them were active in at least one assay; those are over-represented in the sample as a whole. Active and inactive are the calls of the source. Rule for the calls: active = growth percent below 10; inactive = the rest.
// allowed return values: y = active, n = inactive

1) CCn1cc(C(=O)O)c(=O)c2cc(F)c(N3CCN(CC(=O)Nc4ccc(/C(C)=N/OC)cc4)CC3)cc21: n

Task: Name the outcome recorded for COc1cc(NC(=O)COc2cc(C)nc3ccc(OC)cc23)cc(OC)c1 in the assay.
Result: n

Task: Name the outcome recorded for COc1cc(C(=O)Nc2cc(OC)c3ccn(C)c3c2)cc2c1C[C@]1(C)CC[C@@H](O)C(C)(C)[C@H]1O2 in the assay.
Result: y

Task: Name the outcome recorded for COc1ccc(C2=NN(c3ccc(S(N)(=O)=O)cc3)C(c3ccc(Cl)cc3)C2)c(O)c1 (configuration not stated) in the assay.
Result: n

Task: Name the outcome recorded for CCOC(=O)C1=C(C)n2nc(CC#N)c(C#N)c2NC1c1ccc(Cl)cc1 (configuration not stated) in the assay.
Result: n

Task: Name the outcome recorded for O=c1[nH]nc(-c2ccc(Br)cc2)c2sc(NC(=S)Nc3ccc(Cl)cc3)nc12 in the assay.
Result: n

Task: Name the outcome recorded for CN1CC=C(c2cc(NC(=O)Nc3ccc(Oc4ccnc(NC(=O)C5CC5)c4)c(F)c3)cc(C(F)(F)F)c2)CC1 in the assay.
Result: y

Task: Name the outcome recorded for C/C(=C\c1cnc(C)s1)[C@@H]1C[C@@H]2O[C@@H]2CCC[C@H](C)[C@H](O)[C@@H](C)C(=O)C(C)(C)[C@@H](O)CC(=O)O1 in the assay.
Result: n

---

tested on: NCI-H522 lung; assay: NCI-60 one-dose screen, 48 h (100 = growth as untreated, 0 = no growth, -100 = all killed); conditions: 10 µM unless noted
This is part of a sample that, as a whole, favours compounds with a hit. Of some 83,000 tested, about 20% had one in any assay.
value_type: growth (%)
Respond numerically; units are % and should not be typed.

Here are 3 compounds together with their reported answers.
1) C=C1C(=O)O[C@H]2[C@H]1CC/C(C=Nc1c(N)cc(F)cc1Br)=C\CC[C@@]1(C)O[C@@H]21: 53.8
2) COc1ccc2[nH]c(=O)c(/C=C/C(=O)/C=C/c3ccc(O)c(OC)c3)cc2c1: 29
3) O=c1[nH]nc(-c2ccc(Br)cc2)c2sc(NC(=S)Nc3ccc(Cl)cc3)nc12: 94.1

Task: Need growth, item CCOC(=O)C1=C(C)n2nc(CC#N)c(C#N)c2NC1c1ccc(Cl)cc1 (stereo not drawn)
Result: 95.4

Task: Need growth, item O=C(O)c1cn(C2CC2)c2cc(N3CCN(Cc4nnc(Nc5ccccc5)o4)CC3)c(F)cc2c1=O
Result: 92.7

Task: Need growth, item Nc1c(C(=O)Nc2ccccn2)sc2nc3c(cc12)CCCCCC3
Result: 6.47

Task: Need growth, item Cc1ccc(-c2nc(C#N)c(S(=O)(=O)N(C)CCO)o2)cc1
Result: 17.5

Task: Need growth, item CN(C)CCCn1c2c(c3cc(-c4cccc(S(N)(=O)=O)c4)ccc3c1=O)C(=O)c1ccccc1-2
Result: 44.9

---

Listing of recorded growth by entry.
tested on: OVCAR-4 ovarian; experiment: NCI-60 one-dose screen, 48 h (100 = growth as untreated, 0 = no growth, -100 = all killed); settings: 10 µM unless noted
Compounds without any hit were thinned out: in the full panel of roughly 83,000, 20% have a hit.
Respond numerically; units are % and should not be typed.

Here are 2 compounds together with their reported answers.
1) COc1cc2cc(c1Cl)N(C)C(=O)C[C@H](OC(=O)[C@H](C)N(C)C(=O)CCS)C[C@]1(C)O[C@H]1[C@H](C)[C@@H]1C[C@@](O)(NC(=O)O1)[C@H](OC)/C=C/C=C(\C)C2: 28.8
2) CNS(=O)(=O)c1cccc(-c2ccc3c4c(n(C)c(=O)c3c2)-c2ccccc2C4=O)c1: 92.1

Task: Need growth, item CCOC(=O)NC(Cc1ccccc1)c1ccccc1 (centres undefined)
Result: 106

Task: Need growth, item N#Cc1c(-c2ccc(F)cc2)nc(N/N=C/c2cccc(O)c2)nc1N1CCOCC1
Result: 79.7

---

test system: SF-295 CNS; assay: NCI-60 one-dose screen, 48 h (100 = growth as untreated, 0 = no growth, -100 = all killed); settings: 10 µM unless noted
About 83,000 compounds went through this panel and 20% of them were active in at least one assay; those are over-represented in the sample as a whole.
Listing of recorded growth by entry.
Respond numerically; units are % and should not be typed.

Here are 5 compounds together with their reported answers.
1. CCOC(=O)NCCc1nc2c([nH]1)c(=O)n(C)c(=O)n2C: 103
2. CCCCc1n(Cc2ccc3ccccc3c2)c2ccccc2[n+]1Cc1ccc2ccccc2c1: -87.8
3. O=C1C(=O)c2c(nc3ccc(Br)cn23)-c2ccccc21: -100
4. CC1CCCN(CCCCCOc2ccc3oc4ccccc4c(=O)c3c2)C1 (stereo unspecified): 72.9
5. COc1ccc(C2CC(c3ccc(OC)cc3O)=NN2c2ccc(S(N)(=O)=O)cc2)cc1 (stereo unspecified): -7.99

Task: Need growth, item COc1ccc(/C=C/C(=O)C(CC2CCC2)C(=O)/C=C/c2ccc(OC)c(OC)c2)cc1OC
Result: -16.6

Task: Need growth, item COc1ccc(-c2cc(C(=O)N3N=C(c4ccc(N)cc4)CC3c3ccc(OC)cc3)c3cc(OC)ccc3n2)cc1 (stereo unspecified)
Result: 64.1

---

tested on: RXF 393 renal; assay: NCI-60 one-dose screen, 48 h (100 = growth as untreated, 0 = no growth, -100 = all killed); conditions: 10 µM unless noted
About 83,000 compounds went through this panel and 20% of them were active in at least one assay; those are over-represented in the sample as a whole.
value_type: growth (%)
Respond numerically; units are % and should not be typed.

Here are 5 compounds together with their reported answers.
1. O=C(O)C(C(=O)O)c1cccc2ccccc12: 107
2. NC(=O)C(O)(c1ccccc1)c1ccccc1: 123
3. CC1(C)Cc2c(Br)c(Br)c(Br)c(OCC(O)CN3CCOCC3)c2O1 (stereo not drawn): 70.6
4. CC(=O)c1ccc(NC(=O)CSc2nnc(-c3cc(-c4ccc(Cl)cc4)nc4ccccc34)o2)cc1: 87.2
5. O=C(Nc1ccc2ncnc(Nc3cccc(C(F)(F)F)c3)c2c1)c1cccs1: 66.2

Now examine the next entry.
Task: Need growth, item O=S(=O)(Nc1nccs1)c1ccc(Nc2nc(-c3ccncc3)cs2)cc1
Result: 110

---

system: SK-MEL-28 melanoma; assay: NCI-60 one-dose screen, 48 h; conditions: 10 µM unless noted
The panel holds about 83,000 compounds, 20% with a hit somewhere; the sample as a whole holds those more often. Active and inactive are the calls of the source. Rule for the calls: active = growth percent below 10; inactive = the rest.
// allowed return values: label 1 for active, label 0 for inactive

Example cases with answers are listed next.
1. CNc1cccc2c1C(=O)c1cccc(N)c1C2=O: label 0
2. CCOC(=O)C(=Cc1c(-c2ccccc2)[nH]c2ccccc12)C(=O)OCC: label 0
3. COc1cc(C2=NN(C=O)C(c3cccc(Nc4ccnc5cc(C(F)(F)F)ccc45)c3)C2)cc(OC)c1OC (stereo unspecified): label 0
4. Cc1cc(NC(=O)CNc2nc(Oc3ccc(F)cc3)nc(-c3ccc(F)cc3)n2)ccc1Cl: label 0
5. OCCNc1nc(NCCO)nc(Nc2ccc(C3=NN(c4cc(Cl)cc(Cl)c4)C(c4ccc(C(F)(F)F)cc4)C3)cc2)n1 (stereo unspecified): label 0

Task: Name the outcome recorded for CC(C)Cc1cc(CNC(=O)C2[C@H]3CN(C(=O)c4ccccc4)C[C@@H]23)nn1-c1ccccc1 (stereo partly specified) in the assay.
Result: label 0

Task: Name the outcome recorded for Cc1cc(C)nc(NS(=O)(=O)c2ccc(Nc3ccc4c5c(n(CCCN(C)C)c(=O)c4c3)-c3ccccc3C5=O)cc2)n1 in the assay.
Result: label 0

Task: Name the outcome recorded for CC(C)NS(=O)(=O)c1cccc(-c2ccc3c4c(n(CCCN(C)C)c(=O)c3c2)-c2ccccc2C4=O)c1 in the assay.
Result: label 0

Task: Name the outcome recorded for COc1cc(NC(=O)c2cc(O)c(C/C=C(\C)CCC=C(C)C)c(O)c2)cc2c1O[C@]1(C)CC[C@@H](O)C(C)(C)[C@H]1C2 in the assay.
Result: label 1

Task: Name the outcome recorded for Cc1cnc(SCc2ccc(Cl)cc2)[nH]c1=S in the assay.
Result: label 0

Task: Name the outcome recorded for NC(N)=NC(N)=Nc1cc2ccccc2c2ccccc12 in the assay.
Result: label 0

Task: Name the outcome recorded for CC[C@]12C=CCN3CC[C@@]4(c5ccc(OC)cc5N(C)[C@H]4[C@@](O)(C(=O)OC)[C@@H]1OC(=O)CCC(=O)O[C@H]1CC[C@H]4[C@@H]5CC[C@H]6CC(=O)CC[C@]6(C)[C@H]5CC[C@]14C)[C@@H]32 in the assay.
Result: label 0

Task: Name the outcome recorded for COc1cc(C2=NN(C(C)=O)C(c3cccc(Nc4ccnc5cc(C(F)(F)F)ccc45)c3)C2)cc(OC)c1OC (stereo unspecified) in the assay.
Result: label 0

Task: Name the outcome recorded for COC1=CC=CC2(OC)C3(O)CCCc4cccc(c43)N3C(=O)COC132 (stereo unspecified) in the assay.
Result: label 0

Task: Name the outcome recorded for COc1ccc2oc(=O)cc(-c3nc4ccc(N)cc4[nH]3)c2c1 in the assay.
Result: label 0

Task: Name the outcome recorded for COc1ccc2oc(=O)cc(-c3c(C#N)c(N)n4nc(N)c(C#N)c4c3C#N)c2c1 in the assay.
Result: label 0

Task: Name the outcome recorded for Clc1ccc2c(NCCCNC3CCCCC3)ccnc2c1 in the assay.
Result: label 0

Task: Name the outcome recorded for S=C(Nc1ccccc1)c1ccccn1 in the assay.
Result: label 0

Task: Name the outcome recorded for O=C(Nc1cc(=O)[nH]c(=O)[nH]1)C(Cl)Cl in the assay.
Result: label 0
